Recorded pIC50 values for a group of molecules are listed next.
Molecular target: TNKS2 ARC4 (Homo sapiens, UniProt Q9H2K2)
Construct: ankyrin repeat cluster 4 domain; FRET: 6xHis-mCerulean (CFP) fusion; DSF, NMR, crystal: MBP and His tag cleaved by TEV, residues 487-649 printed for crystal; E. coli BL21(DE3)
Sequence (Q9H2K2 487-649): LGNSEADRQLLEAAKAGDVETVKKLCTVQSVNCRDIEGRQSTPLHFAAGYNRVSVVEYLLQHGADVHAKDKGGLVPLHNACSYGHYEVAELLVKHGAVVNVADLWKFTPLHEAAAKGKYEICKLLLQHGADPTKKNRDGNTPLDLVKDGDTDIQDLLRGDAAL
Assay: biochemical
Set-up: FRET competition: inhibition of CFP-ARC domain binding to YFP-REAGDGEE peptide
Settings: inhibitor
pIC50 here is simply -log10 of the concentration when that concentration is written in mol/L.

Consider the reported pIC50 for these molecules:
COCCCN1C(=O)C(O)=C(C(=O)c2ccc3c(c2)OCCO3)C1c1ccccc1 (stereo not shown) = 3.44
CCN(CC)CCN1C(=O)C(O)=C(C(=O)c2ccc3c(c2)OCCO3)C1c1ccccc1 (stereo not shown) = 3.59

Let's switch to this molecule now.
// query Item Cc1ccc(C2C(C(=O)c3ccc4c(c3)OCCO4)=C(O)C(=O)N2CCN(C)C)cc1 (stereo not shown) : provide pIC50
// result 3.31

* * *

target: TNKS2 ARC4 (Homo sapiens, UniProt Q9H2K2); construct: ankyrin repeat cluster 4 domain; FRET: 6xHis-mCerulean (CFP) fusion; DSF, NMR, crystal: MBP and His tag cleaved by TEV, residues 487-649 printed for crystal; E. coli BL21(DE3); assay: FRET displacement of YFP-REAGDGEE peptide from CFP-ARC; type: binding; settings: pH 7, 100 nM CFP-ARC, 200 nM YFP-peptide; TBM pocket
observable: pIC50
pIC50 here is simply -log10 of the concentration when that concentration is written in mol/L.

// query Item O=C(C1=C(O)C(=O)N(CCN2CCOCC2)C1c1ccccc1)c1ccc2c(c1)OCCO2 (stereo not shown) : provide pIC50
// result 3.39

* * *

Target: TNKS2 ARC4 (Homo sapiens, UniProt Q9H2K2)
Construct: ankyrin repeat cluster 4 domain; FRET: 6xHis-mCerulean (CFP) fusion; DSF, NMR, crystal: MBP and His tag cleaved by TEV, residues 487-649 printed for crystal; E. coli BL21(DE3)
Set-up: DSF thermal shift of TNKS2 ARC4, stabilization over DMSO control
Conditions: binder
From the text: Given the notable stabilization of the pyrrolone-based compounds from the Commercials Diversity collection, we decided to focus on their common scaffold for compound optimization. Pyrrolone is indeed a versatile moiety that is largely employed for the design of compounds with a variety of biological effects.[55] […]
Recorded ΔTm ± SD (°C) values for a group of compounds are listed next.
Record the value in °C, omitting the unit from your answer.

Consider the reported ΔTm ± SD (°C) for these compounds:
N=C(N)NCCCN1C(=O)C(O)=C(C(=O)c2ccc3c(c2)OCCO3)C1c1cccc(O)c1 (stereo not shown) = 1.31
CCN(CC)CCCN1C(=O)C(O)=C(C(=O)c2ccc3c(c2)OCCO3)C1c1ccncc1 (stereo not shown) = 2.75
CCN(CC)CCCN1C(=O)C(O)=C(C(=O)c2ccc3c(c2)OCCO3)C1c1ccc(N(C)C)cc1 (stereo not shown) = 4.14
COc1cc(C2C(C(=O)c3ccc4c(c3)OCCO4)=C(O)C(=O)N2CCCN2CCOCC2)ccc1O (stereo not shown) = 2.32

// query Enter measured ΔTm ± SD (°C), system TNKS2 ARC4 (Homo sapiens, UniProt Q9H2K2), for the compound shown: O=C(C1=C(O)C(=O)N(CCc2ccccc2)C1c1ccccc1)c1ccc2c(c1)OCCO2 (stereo not shown)
// result 0.91

// query Enter measured ΔTm ± SD (°C), system TNKS2 ARC4 (Homo sapiens, UniProt Q9H2K2), for the compound shown: CCN(CC)CCCN1C(=O)C(O)=C(C(=O)c2ccc(OC)c(OC)c2)C1c1cccc(O)c1 (stereo not shown)
// result 0.08

// query Enter measured ΔTm ± SD (°C), system TNKS2 ARC4 (Homo sapiens, UniProt Q9H2K2), for the compound shown: CCN(CC)CCCN1C(=O)C(O)=C(C(=O)c2ccc3c(c2)CC(C)O3)C1c1ccc(O)cc1 (stereo not shown)
// result 2.67

// query Enter measured ΔTm ± SD (°C), system TNKS2 ARC4 (Homo sapiens, UniProt Q9H2K2), for the compound shown: Cc1ccc(C2C(C(=O)c3ccc4c(c3)OCCO4)=C(O)C(=O)N2CCCN2CCOCC2)cc1 (stereo not shown)
// result 2.19

// query Enter measured ΔTm ± SD (°C), system TNKS2 ARC4 (Homo sapiens, UniProt Q9H2K2), for the compound shown: CN(C)CCCN1C(=O)C(O)=C(C(=O)c2ccc3c(c2)OCCO3)C1c1ccc(Br)cc1 (stereo not shown)
// result 1.49

* * *

Molecular target: TNKS1 ARC4 (Homo sapiens)
Construct: ankyrin repeat cluster 4 domain, 6xHis-mCerulean (CFP) fusion, E. coli
Sequence (O95271 649-806 limits assumed): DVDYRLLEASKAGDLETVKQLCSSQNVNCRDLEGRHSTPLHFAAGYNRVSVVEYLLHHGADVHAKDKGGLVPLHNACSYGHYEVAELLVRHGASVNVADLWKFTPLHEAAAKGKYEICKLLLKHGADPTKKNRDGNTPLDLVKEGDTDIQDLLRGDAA
Assay: FRET displacement of YFP-REAGDGEE peptide from CFP-ARC
observable: pIC50
pIC50 here is simply -log10 of the concentration when that concentration is written in mol/L.

Consider the reported pIC50 for these compounds:
Cc1ccc(C2C(C(=O)c3ccc4c(c3)OCCO4)=C(O)C(=O)N2CCCN2CCOCC2)cc1 (stereo not shown) = 3.92
CCC(CC)CCCN1C(=O)C(O)=C(C(=O)c2ccc3c(c2)OCCO3)[C@@H]1c1ccc(O)cc1 = 5.05
CCN(CC)CCCN1C(=O)C(O)=C(C(=O)c2ccc3c(c2)OCCO3)C1c1ccc(O)cc1 (stereo not shown) = 4.74

Let's switch to this compound now.
// query Enter measured pIC50, system TNKS1 ARC4 (Homo sapiens), for the compound shown: COc1ccc(C2C(C(=O)c3ccc4c(c3)OCCO4)=C(O)C(=O)N2CCCN2CCOCC2)cc1 (stereo not shown)
// result 3.91

* * *

Molecular target: TNKS2 ARC4 (Homo sapiens, UniProt Q9H2K2)
Construct: ankyrin repeat cluster 4 domain; FRET: 6xHis-mCerulean (CFP) fusion; DSF, NMR, crystal: MBP and His tag cleaved by TEV, residues 487-649 printed for crystal; E. coli BL21(DE3)
Sequence (Q9H2K2 487-649): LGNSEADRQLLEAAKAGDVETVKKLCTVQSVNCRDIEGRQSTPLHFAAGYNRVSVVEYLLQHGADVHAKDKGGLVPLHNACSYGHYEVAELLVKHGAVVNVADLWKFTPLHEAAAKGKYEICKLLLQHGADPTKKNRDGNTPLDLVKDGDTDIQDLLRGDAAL
Assay: FRET displacement of YFP-REAGDGEE peptide from CFP-ARC
Format: binding
observable: IC50 (µM)
Record the value in µM, omitting the unit from your answer.

Consider the reported IC50 for these compounds:
CCN(CC)CCCCN1C(=O)C(O)=C(C(=O)c2ccc3c(c2)OCCO3)C1c1ccc(O)cc1 (stereo not shown) [S12] = 74
COc1ccc(C2C(C(=O)c3ccc4c(c3)OCCO4)=C(O)C(=O)N2CCCN2CCOCC2)cc1 (stereo not shown) [compound 6, 6] = 82
CCN(CC)CCCN1C(=O)C(O)=C(C(=O)c2ccc3c(c2)OCCO3)C1c1ccc(N)cc1 (stereo not shown) [S9] = 17

// query Item CCN(CC)CCCN1C(=O)C(O)=C(C(=O)c2ccc3c(c2)OCCO3)C1c1ccc(F)cc1 (stereo not shown) [compound 2, 2] : provide IC50
// result 32

* * *

target: TNKS2 ARC4 (Homo sapiens, UniProt Q9H2K2); construct: ankyrin repeat cluster 4 domain; FRET: 6xHis-mCerulean (CFP) fusion; DSF, NMR, crystal: MBP and His tag cleaved by TEV, residues 487-649 printed for crystal; E. coli BL21(DE3); experiment: FRET displacement of YFP-REAGDGEE peptide from CFP-ARC; format: binding
Recorded pIC50 values for a group of molecules are listed next.
pIC50 here is simply -log10 of the concentration when that concentration is written in mol/L.

Consider the reported pIC50 for these molecules:
O=C(C1=C(O)C(=O)N(Cc2ccncc2)C1c1ccccc1)c1ccc2c(c1)OCCO2 (centres unmarked) = 3.49
COCCCN1C(=O)C(O)=C(C(=O)c2ccc3c(c2)OCCO3)C1c1cccc(O)c1 (centres unmarked) = 3.43
O=C(C1=C(O)C(=O)N(Cc2ccccc2)C1c1ccc(O)cc1)c1ccc2c(c1)OCCO2 (centres unmarked) = 4.52

// query Item Cc1ccc(C2C(C(=O)c3ccc4c(c3)OCCO4)=C(O)C(=O)N2CCCN(C)C)cc1 (centres unmarked) : provide pIC50
// result 4.29
